Molecular target: Aminopeptidase B (Rattus norvegicus)
Assay: Inhibition of aminopeptidase B or arginyl aminopeptidase purified from rat liver
Assay type: tissue-based
pKi: −log10 of the molar value.
MEASURED PROPERTY: pKi

input_smiles=N=C(N)NCCC[C@H](N)C(=O)C[C@@H](Cc1ccc(O)cc1)C(=O)O system_name="Aminopeptidase B (Rattus norvegicus)" value_observed=9.08
input_smiles=NC(N)=NCCC[C@H](N)C(=O)C[C@@H](Cc1ccccc1)C(=O)O system_name="Aminopeptidase B (Rattus norvegicus)" value_observed=8.60
input_smiles=CC(C)C[C@H](NC(=O)[C@@H](O)[C@H](N)Cc1ccccc1)C(=O)O system_name="Aminopeptidase B (Rattus norvegicus)" value_observed=7.85

* * *

Target: UniProt O09175
Test: Inhibition of aminopeptidase B or arginyl aminopeptidase purified from rat liver
pIC50: −log10 of the molar value.
MEASURED PROPERTY: pIC50

compound="CC(C)CCNC(=O)C(NC(=O)C(Cc1ccccc1)CC(O)C(N)CC(C)C)C(C)C (stereo unspecified)" value_observed="< 3.22"

* * *

Molecular target: Aminopeptidase B (Rattus norvegicus, UniProt O09175)
Sequence (O09175 whole entry): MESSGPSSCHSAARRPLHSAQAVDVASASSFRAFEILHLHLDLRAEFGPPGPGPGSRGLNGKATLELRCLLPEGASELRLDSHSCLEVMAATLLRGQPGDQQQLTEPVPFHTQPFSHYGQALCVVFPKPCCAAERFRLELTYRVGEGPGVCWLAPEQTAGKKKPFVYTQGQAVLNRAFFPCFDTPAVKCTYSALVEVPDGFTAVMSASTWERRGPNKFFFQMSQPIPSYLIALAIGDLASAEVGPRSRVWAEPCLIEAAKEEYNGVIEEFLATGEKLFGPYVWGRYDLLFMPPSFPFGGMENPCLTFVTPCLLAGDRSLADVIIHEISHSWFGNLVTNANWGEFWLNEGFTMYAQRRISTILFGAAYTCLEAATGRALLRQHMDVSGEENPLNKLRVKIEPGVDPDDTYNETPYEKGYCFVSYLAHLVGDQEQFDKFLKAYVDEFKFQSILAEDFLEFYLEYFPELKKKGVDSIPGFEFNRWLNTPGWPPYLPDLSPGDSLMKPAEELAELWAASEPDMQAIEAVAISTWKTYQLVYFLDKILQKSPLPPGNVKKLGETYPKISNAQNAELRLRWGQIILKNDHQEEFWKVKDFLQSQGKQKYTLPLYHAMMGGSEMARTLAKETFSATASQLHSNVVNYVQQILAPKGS
Assay: Non-competitive inhibition of aminopeptidase B or arginyl aminopeptidase purified from rat liver; Ki value reporting the intercept effect(Kii)
pKi: −log10 of the molar value.
MEASURED PROPERTY: pKi

compound="CC(CC(=O)[C@@H](N)CCCCN)C(=O)NC(Cc1ccccc1)C(=O)O (stereo partly specified)" system_name="Aminopeptidase B (Rattus norvegicus, UniProt O09175)" measured_property=pKi value_observed=5.70

* * *

Target: Aminopeptidase B (Rattus norvegicus, UniProt O09175)
Experiment: Non-competitive inhibition of aminopeptidase B or arginyl aminopeptidase purified from rat liver; Ki value reporting the slope effect(Kis)
MEASURED PROPERTY: Ki (µM)

compound="CC(CC(=O)[C@@H](N)CCCCN)C(=O)NC(Cc1ccccc1)C(=O)O (stereo partly specified)" measured_property=Ki unit_string=µM value_observed=8.8

* * *

Target: Aminopeptidase B (Rattus norvegicus, UniProt O09175)
Assay: Competitive inhibition of aminopeptidase B or arginyl aminopeptidase purified from rat liver
MEASURED PROPERTY: IC50

input_smiles=CC(C)CCNC(=O)[C@@H](NC(=O)[C@H](C)CC(=O)[C@@H](N)CC(C)C)C(C)C system_name="Aminopeptidase B (Rattus norvegicus, UniProt O09175)" value_observed="> 400 µM"
